Reference source: ChEMBL document CHEMBL4028813

Experiment: Elimination rate constant in C57BL/6 mouse brain at 100 mg/kg, ip administered as single dose by UPLC-MS analysis
Assay type: ADME, organism-based
assay.readout: k el
State the value, then name its unit.

Query :: // lookup k el for "CC1(C)NC(=O)N(CCn2ccnc2)C1=O"
Result :: 0.000117 s⁻¹

###

Test: Toxicity in MOG peptide/complete freund's adjuvant/pertussis toxin-induced C57BL/6 mouse autoimmune encephalomyelitis model assessed as death at 50 mg/kg, ip administered once daily for 40 days measured during compound dosing (reference value: 20%)
Assay type: organism-based
Conditions: in vivo, read-out: Activity
assay.readout: mortality at 960 h (%)
Kindly answer with a numeric value in %, unit omitted.

Query :: // lookup mortality at 960 h for "CC1(C)NC(=O)N(CCn2ccnc2)C1=O"
Result :: 29

###

Test: AUC (0 to 360 mins) in C57BL/6 mouse brain at 100 mg/kg, ip administered as single dose by UPLC-MS analysis
Assay type: ADME, organism-based
Parameters: dose 100 mg/kg, time < 6 hr, route intraperitoneal
assay.readout: AUC(0-t) at 6 h (ng·h/mL)
Kindly answer with a numeric value in ng·h/mL, unit omitted.

Query :: // lookup AUC(0-t) at 6 h for "CC1(C)NC(=O)N(CCn2ccnc2)C1=O"
Result :: 12.3
